test system: HL-60; test: Cytotoxicity against human HL60 cells assessed as NADH level after 72 hrs by MTS cells; format: functional, cell-based; details: HL-60, 72 h
pEC50: −log10 of the molar value.
Label scheme, based on pEC50: low class = under 6, middle class = from 6 up to 7, high class = 7 and over

- Chemical string: "Cc1c(-c2ccccc2)nc(-c2cccc(/C=C/C(=O)NO)c2)n1CCc1ccccc1"
  Classification: "middle class"
- Chemical string: "Cc1nc(-c2cccc(/C=C/C(=O)NO)c2)n(CCc2ccccc2)c1Cc1ccccc1"
  Classification: "high class"
- Chemical string: "O=C(/C=C/c1cccc(-c2nc3ccccc3n2CCN2CCCCC2)c1)NO"
  Classification: "middle class"
- Chemical string: "COc1ccc(-n2c(-c3cccc(/C=C/C(=O)NO)c3)nc3ccccc32)cc1"
  Classification: "middle class"
- Chemical string: "Cc1nc(-c2cccc(/C=C/C(=O)NO)c2)n([C@@H]2CCCN(C(C)C)C2)c1-c1ccccc1"
  Classification: "high class"
- Chemical string: "Cc1c(-c2ccccc2)nc(-c2cccc(/C=C/C(=O)NO)c2)n1CCN1CCOCC1"
  Classification: "middle class"
- Chemical string: "Cc1c(-c2ccccc2)nc(-c2cccc(/C=C/C(=O)NO)c2)n1[C@@H]1CCCN(C)C1"
  Classification: "high class"
- Chemical string: "Cc1nc(-c2cccc(/C=C/C(=O)NO)c2)n(CCN2CCOCC2)c1C"
  Classification: "low class"
- Chemical string: "O=C(/C=C/c1cccc(-c2nc3ccccc3n2[C@H]2CCCNC2)c1)NO"
  Classification: "middle class"
- Chemical string: "CCN1CCC[C@@H](n2c(-c3cccc(/C=C/C(=O)NO)c3)nc(Cc3ccccc3)c2C)C1"
  Classification: "high class"

Q: Category of `Cc1nc(-c2cccc(/C=C/C(=O)NO)c2)n(CCN2CCOCC2)c1-c1ccccc1` :
Result: middle class

Q: Any idea which band `CCN1CCC[C@@H](n2c(-c3cccc(/C=C/C(=O)NO)c3)nc(C)c2-c2ccccc2)C1` is in?
Result: high class

---

Recorded EC50 by entry
tested on: PC-3; experiment: Cytotoxicity against human PC3 cells assessed as NADH level after 72 hrs by MTS cells; assay type: functional, cell-based; details: PC-3, 72 h
Respond numerically; units are nM and should not be typed.

- Chemical string: "Cc1nc(-c2cccc(/C=C/C(=O)NO)c2)n(CCc2ccccc2)c1Cc1ccccc1"
  U: "nM"
  EC50: 200
- Chemical string: "Cc1nc(-c2cccc(/C=C/C(=O)NO)c2)n(CCN2CCOCC2)c1-c1ccccc1"
  U: "nM"
  EC50: 1000
- Chemical string: "CN(C)CCn1c(-c2cccc(/C=C/C(=O)NO)c2)nc2ccccc21"
  U: "nM"
  EC50: 2500
- Chemical string: "Cc1nc(-c2cccc(/C=C/C(=O)NO)c2)n(CCN2CCOCC2)c1C"
  U: "nM"
  EC50: 5000

Q: Look at this compound and give its reported EC50. `O=C(/C=C/c1cccc(-c2nc3ccccc3n2CCCc2ccccc2)c1)NO`
Result: 4000

---

Overview of recorded pEC50 for various compounds
tested on: PC-3; assay: Cytotoxicity against human PC3 cells assessed as NADH level after 72 hrs by MTS cells; type: functional, cell-based; settings: PC-3, 72 h
Notebook: values listed as pEC50 are -log10 of the concentration (mol/L).

- Chemical string: "Cc1c(-c2ccccc2)nc(-c2cccc(/C=C/C(=O)NO)c2)n1[C@@H]1CCCN(C(C)C)C1"
  pEC50: 7.00
- Chemical string: "CCN1CCC[C@H](n2c(-c3cccc(/C=C/C(=O)NO)c3)nc3ccccc32)C1"
  pEC50: 6.70

// next item, pEC50 requested
Q: Entry `C[C@@H](c1ccccc1)n1c(-c2cccc(/C=C/C(=O)NO)c2)nc2ccccc21` , system PC-3: what pEC50 was measured?
Result: 4.80

---

Recorded measurements of pEC50, one per entry
system: PC-3; assay: Cytotoxicity against human PC3 cells assessed as NADH level after 72 hrs by MTS cells; assay type: functional, cell-based; conditions: PC-3, 72 h
Notebook: values listed as pEC50 are -log10 of the concentration (mol/L).

Some solved cases for reference:
- Chemical string: "Cn1c(-c2cccc(/C=C/C(=O)NO)c2)nc2ccccc21"
  Numeric result: 5.10
- Chemical string: "O=C(/C=C/c1cccc(-c2nc3ccccc3n2Cc2ccccc2)c1)NO"
  Numeric result: 5.92
- Chemical string: "CC(C)n1c(-c2cccc(/C=C/C(=O)NO)c2)nc2ccccc21"
  Numeric result: 5.60

Q: Fill in the blank: the reported pEC50 of `Cc1nc(-c2cccc(/C=C/C(=O)NO)c2)n([C@@H]2CCCN(C)C2)c1-c1ccccc1` is ____.
Result: 7.00

Q: Using the record for `CCN(CC)CCn1c(-c2cccc(/C=C/C(=O)NO)c2)nc2ccccc21` , report its pEC50.
Result: 5.92

Q: Tell me the measured pEC50 of `Cc1c(-c2ccccc2)nc(-c2cccc(/C=C/C(=O)NO)c2)n1CCN1CCOCC1` , please.
Result: 6.00

---

Biological target: Histone deacetylase 8 (Homo sapiens, UniProt Q9BY41)
Sequence (Q9BY41 whole entry): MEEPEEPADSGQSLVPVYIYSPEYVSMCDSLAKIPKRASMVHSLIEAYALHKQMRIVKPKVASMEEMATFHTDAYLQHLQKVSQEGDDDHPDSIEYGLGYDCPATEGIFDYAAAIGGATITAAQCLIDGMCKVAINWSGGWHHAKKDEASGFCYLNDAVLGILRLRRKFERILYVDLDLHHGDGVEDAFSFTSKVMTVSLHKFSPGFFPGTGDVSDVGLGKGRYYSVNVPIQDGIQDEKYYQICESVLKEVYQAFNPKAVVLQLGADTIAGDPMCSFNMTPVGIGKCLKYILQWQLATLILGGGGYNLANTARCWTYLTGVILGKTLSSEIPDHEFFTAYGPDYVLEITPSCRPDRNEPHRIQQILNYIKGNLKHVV
Assay: Inhibition of human recombinant HDAC8
Reported metric: IC50

Worked examples follow.
- Chemical string: "Cc1nc(-c2cccc(/C=C/C(=O)NO)c2)n(CCN2CCOCC2)c1Cc1ccccc1"
  IC50: "63 nM"
- Chemical string: "O=C(/C=C/c1cccc(-c2nc3ccccc3n2CCc2ccccc2)c1)NO"
  IC50: "25 nM"
- Chemical string: "O=C(/C=C/c1cccc(-c2nc3ccccc3n2Cc2ccccc2)c1)NO"
  IC50: "40 nM"
- Chemical string: "O=C(/C=C/c1cccc(-c2nc3ccccc3n2-c2ccc(Cl)cc2)c1)NO"
  IC50: "50 nM"
- Chemical string: "Cc1nc(-c2cccc(/C=C/C(=O)NO)c2)n(CCc2ccccc2)c1Cc1ccccc1"
  IC50: "20 nM"
- Chemical string: "CC(C)N(CCn1c(-c2cccc(/C=C/C(=O)NO)c2)nc2ccccc21)C(C)C"
  IC50: "200 nM"

Q: Tell me reported IC50 for `O=C(/C=C/c1cccc(-c2nc3ccccc3n2CCN2CCOCC2)c1)NO` , tested with Histone deacetylase 8 (Homo sapiens, UniProt Q9BY41).
Result: 400 nM

Q: Lab note: need IC50 with Histone deacetylase 8 (Homo sapiens, UniProt Q9BY41) for entry `Cc1c(Cc2ccccc2)nc(-c2cccc(/C=C/C(=O)NO)c2)n1CCc1ccccc1` , please look it up.
Result: 16 nM

Q: Recorded IC50 for `CCN(CC)CCn1c(-c2cccc(/C=C/C(=O)NO)c2)nc2ccccc21` with Histone deacetylase 8 (Homo sapiens, UniProt Q9BY41), please?
Result: 63 nM

Q: Form entry - test system: Histone deacetylase 8 (Homo sapiens, UniProt Q9BY41); read-out: IC50; compound: `CCN1CCC[C@@H](n2c(-c3cccc(/C=C/C(=O)NO)c3)nc(C)c2-c2ccccc2)C1`
Result: 50 nM

Q: Look up IC50 with Histone deacetylase 8 (Homo sapiens, UniProt Q9BY41) for this compound: `O=C(/C=C/c1cccc(-c2nc3ccccc3n2CCN2CCCCC2)c1)NO`
Result: 100 nM

Q: Return IC50 measured with Histone deacetylase 8 (Homo sapiens, UniProt Q9BY41) given this compound: `Cc1nc(-c2cccc(/C=C/C(=O)NO)c2)n(CCN2CCOCC2)c1-c1ccccc1`
Result: 79 nM

Q: Hi! What's the reported IC50 for `C[C@H](c1ccccc1)n1c(-c2cccc(/C=C/C(=O)NO)c2)nc2ccccc21` on Histone deacetylase 8 (Homo sapiens, UniProt Q9BY41)?
Result: 20 nM

Q: Tell me reported IC50 for `O=C(/C=C/c1cccc(-c2nc3ccccc3n2C2CCCCC2)c1)NO` , tested with Histone deacetylase 8 (Homo sapiens, UniProt Q9BY41).
Result: 50 nM

Q: Item `Cc1nc(-c2cccc(/C=C/C(=O)NO)c2)n(CCc2ccccc2)c1-c1ccccc1` with Histone deacetylase 8 (Homo sapiens, UniProt Q9BY41) - IC50?
Result: 25 nM

Q: Lab request: please report IC50 under test system Histone deacetylase 8 (Homo sapiens, UniProt Q9BY41) for `CN1CCC[C@@H](n2c(-c3cccc(/C=C/C(=O)NO)c3)nc3ccccc32)C1`
Result: 200 nM

Q: Request body: readout IC50, system Histone deacetylase 8 (Homo sapiens, UniProt Q9BY41), query `CCN1CCC[C@@H](n2c(-c3ccccc3)nc(C)c2-c2cccc(/C=C/C(=O)NO)c2)C1` . Return the value.
Result: 400 nM

Q: Missing value: IC50, Histone deacetylase 8 (Homo sapiens, UniProt Q9BY41), entry `Cc1c(Cc2ccccc2)nc(-c2cccc(/C=C/C(=O)NO)c2)n1CCN1CCOCC1` . Fill in?
Result: 50 nM

Q: Fill in the recorded IC50 for this compound, with Histone deacetylase 8 (Homo sapiens, UniProt Q9BY41) as test system: `Cc1nc(-c2cccc(/C=C/C(=O)NO)c2)n(CCc2ccccc2)c1C`
Result: 31 nM

Q: Lab note: need IC50 for `O=C(/C=C/c1cccc(-c2nc3ccccc3n2[C@@H]2CCCNC2)c1)NO` on Histone deacetylase 8 (Homo sapiens, UniProt Q9BY41), anyone have it?
Result: 120 nM
